Numbers sourced from the supplement of paper PMC13380429.

I'd be grateful if you could share measured inhibition of SARS-CoV-2 cytopathic effect for these entries.
- Test system: Vero E6 infected with SARS-CoV-2
- Assay protocol: inhibition of SARS-CoV-2 cytopathic effect; higher = more antiviral protection, active = above 15
- Condition info: 8.33 nM; 48 h
Answers are plain numbers, in %.

Illustrative cases are given below, each with its answer.
- CCN(CC)CCN(Cc1ccc(-c2ccc(C(F)(F)F)cc2)cc1)C(=O)Cn1c(SCc2ccc(F)cc2)nc(=O)c2c1CCC2 [darapladib]: 1.73
- Cc1ccc(S(=O)(=O)Nc2ccc3c(c2)c(C(=O)C(F)(F)F)cn3CC(=O)N[C@@H](CC(C)C)C(=O)O)cc1: -1.93
- COc1ccc2cc1Oc1cc3c(cc1OC)CC[N+](C)(C)[C@H]3Cc1ccc(cc1)Oc1c(OC)c(OC)cc3c1[C@@H](C2)[N+](C)(C)CC3 [metocurine]: 0.93
- COc1ncc(-c2ccc3nccc(-c4ccnnc4)c3c2)cc1NS(=O)(=O)c1ccc(F)cc1F: -0.94

Below are some compounds; for each one, tell me its inhibition of SARS-CoV-2 cytopathic effect.
1. N#Cc1cccc(-c2nc(-c3cccnc3)no2)c1
2. CC(=O)O[C@]1(C(C)=O)CC[C@H]2[C@@H]3CCC4=CC(=O)CC[C@]4(C)[C@H]3CC[C@@]21C [hydroxyprogesterone-acetate]
3. COc1ccc(Cl)c(Nc2nc3ccccc3nc2NS(=O)(=O)c2cccc(NC(=O)C(C)(C)N)c2)c1 [pilaralisib]
4. C[C@@H]1O[C@@H](OC[C@H]2O[C@@H](Oc3c(-c4ccc(O)c(O)c4)oc4cc(O)cc(O)c4c3=O)[C@H](O)[C@@H](O)[C@@H]2O)[C@H](O)[C@H](O)[C@H]1O [rutin]
5. COc1cc(N)c(Cl)cc1C(=O)NC1CN2CCC1CC2 (stereo not drawn) [zacopride]
6. Oc1ccc2ccccc2c1Cc1c(O)ccc2ccccc12
7. CCCCCCCCN=c1ccn(CCCCCCCCCCn2ccc(=NCCCCCCCC)cc2)cc1 [octenidine]
8. COc1ccc(C2(CNC(=O)c3ccc(NC(=O)c4ccco4)cc3)CCOCC2)cc1

1. 0.72
2. 0.18
3. 0.48
4. 1.59
5. -0.23
6. -1.04
7. 2.35
8. 1.21

# batch size: 5; output inhibition of SARS-CoV-2 cytopathic effect per entry
1. CC(C)(C)/[N+]([O-])=C/c1ccc(S(=O)(=O)O)cc1S(=O)(=O)O
2. C#C[C@]1(O)CC[C@H]2[C@@H]3CCC4=C(CCC(=O)C4)[C@H]3CC[C@@]21C [noretynodrel]
3. Cc1c[nH]c(=O)n(CCCN2CCN(c3ccccc3OCC(F)(F)F)CC2)c1=O
4. O=S(=O)(O)c1ccc2[nH]c(-c3ccccc3)nc2c1 [phenylbenzimidazole-sulfonic-acid]
5. C=CCN1C[C@H](C)N([C@H](c2ccc(C(=O)N(CC)CC)cc2)c2cccc(OC)c2)C[C@H]1C

1. -0.15
2. 0.96
3. 0.88
4. 2.98
5. 1.28

Quick request: inhibition of SARS-CoV-2 cytopathic effect for each listed item, please.
1. COc1cc(C(C)=O)ccc1O [apocynin]
2. CC(N)Cc1c[nH]c2ccc(OCc3cccs3)cc12 (stereo not drawn)
3. COc1cc2cc(c1Cl)N(C)C(=O)C[C@H](OC(=O)C(C)C)[C@]1(C)O[C@@H]1[C@H](C)[C@@H]1C[C@@](O)(NC(=O)O1)[C@H](OC)/C=C/C=C(\C)C2 [ansamitocin-p-3]
4. C[C@H]1c2cccc(O)c2C(=O)C2=C(O)[C@]3(O)C(=O)C(C(N)=O)=C(O)[C@@H](N(C)C)[C@@H]3[C@@H](O)[C@@H]21 [doxycycline]

1: -1.17; 2: -0.24; 3: -1.3; 4: -0.605
